Assign inhibition to each entry below.
- experiment notes: LFS_MB_2R medulloblastoma cell growth inhibition, synergistic combos for chromothripsis tumors, cisplatin combos (AID 1671457);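 note: cells exposed to compound for four days before readout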
- stated conditions: LFS_MB_2R medulloblastoma cells, measured here: combination with cisplatin, at 0.5 µM, stronger effect = higher value
Return type: number; implicit unit %.

inhibition for NC(Cc1ccc(N(CCCl)CCCl)cc1)C(=O)O (centres undefined) ? -23.8

And "Cn1c(CCCC(=O)O)nc2cc(N(CCCl)CCCl)ccc21" ? -2.61

And "Cc1c2ccncc2c(C)c2c1[nH]c1ccccc12" ? 15.1

And "O=C1CCC[C@@H]2[C@H]3CCCN4CCC[C@@H](CN12)[C@@H]34" ? 8.66

And O=c1[nH]c(=O)n(C2OC(CO)C(O)C2O)cc1F (centres undefined) ? -4.31

And "CCC1(c2ccccc2)C(=O)NC(=O)NC1=O" ? -6.12

And COc1cc(C2c3cc4c(cc3C(O)C3COC(=O)C23)OCO4)cc(OC)c1OC (centres undefined) ? 48.6

And "O=C(O)CCCc1ccc(N(CCCl)CCCl)cc1" ? -24.7

And "O=P(O)(NCCCl)NCCCl" ? -19.3

----------
Assign activity remaining to each entry below.
- Test system: Aerobactin synthetase IucA (Klebsiella pneumoniae hvKP1)
- experiment notes: Biochemical IucA enzyme inhibition primary screen of the Spectrum library (AID 1346200);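 note: 100% = wells without compound and 0% = wells lacking enzyme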
- stated conditions: malachite green pyrophosphate, A620, at 8 µM, stronger effect = lower value
Return type: number; implicit unit %.

activity remaining for "O=c1c(O)c(-c2ccccc2)oc2cc(O)ccc12" ? 100

And "COc1ccc2oc3ccccc3c(=O)c2c1" ? 106

And "Nc1c2c(nc3ccccc13)CCCC2" ? 118

And "Cc1ccc(O)cc1" ? 102

And "CN(C(=O)C(Cl)Cl)c1ccc(OC(=O)c2ccco2)cc1" ? 96.4

And "C[C@](N)(Cc1ccc(O)cc1)C(=O)O" ? 120

And COC(=O)[C@@H]1OC(=O)C2OC23[C@@]1(C)CCC1[C@]2(C)C(C[C@H](O)[C@]13C)C(C)(C)[C@H](OC(C)=O)C[C@@H]2OC(C)=O (stereo partly specified) ? 111

And COc1cc2nc(N(C)CCCNC(=O)C3CCCO3)nc(N)c2cc1OC (stereo unspecified) ? 120

And "FC(F)(F)c1ccccc1-n1ccnc1" ? 85.9

And CC1=C(/C=C/C(C)=C/C=C/C(C)=C/C=C/C=C(C)/C=C/C=C(C)/C=C/C2=C(C)C(=O)C(O)CC2(C)C)C(C)(C)CC(O)C1=O (stereo unspecified) ? 109

And "COc1c2occc2cc2ccc(=O)oc12" ? 124

----------
- experiment notes: sensitizers of A549 cells to miR-34 induction, primary screen, imaging, A549 dox-inducible miR-34, nuclei and caspase counts (AID 1347080)
- stated conditions: A549 miR-34 inducible, Hoechst nuclei count, 48 h; measured here: total cells without miR-34 induction
Short version: cell count at least 9000 is Yes, less is No.

Identify whether the reported cell count of the following molecule is 9000 or greater: "CCCn1c(C)c(C(=O)c2cccc3ccccc23)c2ccccc21" No

And CC(Cc1ccccc1)NCCC(c1ccccc1)c1ccccc1 (stereo not given) (tested in a mixture with another compound) ? No

And CC(=O)[C@H]1CC[C@H]2[C@@H]3CCC4C[C@](C)(O)CC[C@]4(C)[C@H]3CC[C@]12C (stereo not given in full) ? Yes

And "O=[N+]([O-])c1ccc([As](=O)(O)O)cc1" ? Yes

And "C=C[C@]12CN(C)[C@@H]3[C@H]4COC(CC41)[C@]1(C(=O)Nc4ccccc41)[C@@H]32" ? Yes

And "C[C@H](Cc1ccc2c(c1)OC(C(=O)O)(C(=O)O)O2)NC[C@H](O)c1cccc(Cl)c1" ? Yes

And "COc1ccc(C(=O)c2c(C)n(CCN3CCOCC3)c3cc(I)ccc23)cc1" ? No

And "O=S(=O)(F)Cc1ccccc1" ? Yes

And N[C@]1(C(=O)O)CC[C@@H](C(=O)O)C1 (racemic) ? No

----------
- experiment notes: MDA-MB-436 breast carcinoma cell growth inhibition, synergistic combos for chromothripsis tumors, BGB or cisplatin combos (AID 1671458);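 note: cells exposed for 96 hours; 0% = vehicle DMSO and 100% = killing by high DMSO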
- stated conditions: MDA-MB-436 breast carcinoma growth inhibition, drug combinations; measured here: cisplatin combination; at 0.5 µM; stronger effect = higher value
Assign inhibition to each entry below.
Return type: number; implicit unit %.

inhibition for COc1cc(C2c3cc4c(cc3C(O)C3COC(=O)C23)OCO4)cc(OC)c1OC (configuration not stated) ? 72.1

And "O=C1CCC[C@@H]2[C@H]3CCCN4CCC[C@@H](CN12)[C@@H]34" ? -10.4

And O=c1[nH]c(=O)n(C2OC(CO)C(O)C2O)cc1F (configuration not stated) ? 39.9

And "Cn1c(CCCC(=O)O)nc2cc(N(CCCl)CCCl)ccc21" ? -31

And "CC1(C)C(C(=O)Nc2ccc(S(=O)(=O)c3ccc(NC(=O)C4C(C)(C)C4(C)C)cc3)cc2)C1(C)C" ? -40.7

And "O=P(O)(NCCCl)NCCCl" ? -16

And "CCC1(c2ccccc2)C(=O)NC(=O)NC1=O" ? -5.56

----------
Assign red/green cell ratio (normalised) to each entry below.
- experiment notes: differential killing of epithelial or mesenchymal cells, primary screen, imaging, PC-3E GFP, TEM4-18 mCherry, co-culture (AID 1345086);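 note: normalised mesenchymal count divided by normalised epithelial count so high means epithelial killing; cells exposed to compound for 72 h before imaging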
- stated conditions: imaging cell counts, at 1 µM, actives lie on both sides
Answer as a number with no unit attached.

red/green cell ratio (normalised) for C[C@H]1OC(O[C@H]2[C@@H](O)CC(O[C@H]3[C@@H](O)C[C@H](O[C@H]4CC[C@]5(C)C6CC[C@]7(C)[C@@H](C8=CC(=O)OC8)[C@@H](O)C[C@]7(O)[C@@H]6CC[C@@H]5C4)O[C@@H]3C)O[C@@H]2C)C[C@H](O)C1O (some centres undefined) ? 0.34

And O=P1(NCCCl)OCCCN1CCCl (centres undefined) ? 1.03

And "CC1=NCCc2c1[nH]c1cc(O)ccc21" ? 0.98

And "C=C[C@H]1CN2CC[C@H]1C[C@H]2[C@H](O)c1ccnc2ccccc12" ? 1.04

----------
- System: Aerobactin synthetase IucA (Klebsiella pneumoniae, hypervirulent)
- experiment notes: IucA enzyme inhibition, biochemical, LOPAC library, absorbance readout (AID 1346212);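 note: 100% = no compound wells and 0% = no enzyme wells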
- stated conditions: IucA enzyme assay, absorbance (OD) readout; stronger effect = lower value; concentration not given here
measure: remaining activity (%)
Return type: number; implicit unit %.

remaining activity for OC(CCN1CCCCC1)(c1ccccc1)C1CCCCC1 (stereo not given) ? 104

And "NCCCCCCCCCCN" ? 104

And "CCN(CC)C(=O)c1ccc(O)c(OC)c1" ? 122

And "COCCCC/C(=N\OCCN)c1ccc(C(F)(F)F)cc1" ? 100

And CC#CCOC(=O)c1c(C)nc2sc3c(c2c1N)CCC(O)C3 (stereo not given) ? 113

And "NC(=O)c1ncn([C@@H]2O[C@H](CO)[C@@H](O)[C@H]2O)n1" ? 96.8

And "c1ccc(CCCN2CCN(CCOC(c3ccccc3)c3ccccc3)CC2)cc1" ? 104

And C[C@]12CCC3C(CC[C@H]4C[C@H](O)CC[C@]34C)C1CC[C@@H]2C(=O)CO (stereo not given in full) ? 121

And "CC/C(=C(\c1ccccc1)c1ccc(OCCN(C)C)cc1)c1ccccc1" ? 107

And "CCCC[C@@]1(C2CCCC2)Cc2cc(OCC(=O)O)c(Cl)c(Cl)c2C1=O" ? 106

And "CC(=O)CCCCn1c(=O)c2c(ncn2C)n(C)c1=O" ? 123

And "Cn1c(=O)c2c(ncn2C)n(C)c1=O" ? 113

And "Cc1ccc(N(CC2=NCCN2)c2cccc(O)c2)cc1" ? 92.9

And "COc1ccccc1N1CCN(CCN(C(=O)C2CCCCC2)c2ccccn2)CC1" ? 119

And "C#C[C@]1(O)CC[C@H]2[C@@H]3CCC4=Cc5oncc5C[C@]4(C)[C@H]3CC[C@@]21C" ? 101

And "COc1ccccc1N1CCN(CCCCNC(=O)c2ccc3ccccc3c2)CC1" ? 118

And COc1ccc(OC)c(C(O)C(C)N)c1 (stereo not given) ? 112

And O=C(C1CCCCC1)N1CC(=O)N2CCc3ccccc3C2C1 (stereo not given) ? 104

And "CC(=O)/C(C)=N/O" ? 106

And "Cc1cc(C)c(NC(=O)C[C@H](CC(=O)O)c2cccc3ccccc23)c(C(=O)N2CCC3(CCCC3)CC2)c1" ? 103

And "CCSC(=N)N" ? 93.6

And "Nc1ccn([C@H]2CC[C@@H](CO)O2)c(=O)n1" ? 121

And "Cc1cn([C@H]2C=C[C@@H](CO)O2)c(=O)[nH]c1=O" ? 106

And "O=c1[nH]ccc2c(O)cccc12" ? 117

And "CC(C)(C)c1cc(C=C(C#N)C#N)cc(C(C)(C)C)c1O" ? 101
